- protocolDescription: Drug level in rhesus monkey cervical tissue at 1 ml/day administered intravaginally for 7 days measured 24 hrs after final dose by LC-MS/MS analysis
- Type: ADME, Macaca mulatta
- runParameters: read-out: Drug uptake
observationType: concentration at 24 h (ng/g)
# unit: ng/g | format: bare number

Read off the recorded concentration at 24 h for Cc1cc(C)c(Nc2ccnc(Nc3ccc([14C]#N)cc3)n2)c(C)c1 [[14C]DAPIVIRINE] 271

----------
- protocolDescription: Drug level in rhesus monkey vaginal tissue at 1 ml/day administered intravaginally for 7 days measured 24 hrs after final dose by LC-MS/MS analysis
- Format: ADME, Macaca mulatta, Vagina
- runParameters: read-out: Drug uptake
observationType: concentration at 24 h (ng/g)
Unit ng/g implied. Number only.

Let me know recorded concentration at 24 h for Cc1cc(C)c(Nc2ccnc(Nc3ccc([14C]#N)cc3)n2)c(C)c1 [[14C]DAPIVIRINE] , thanks. 1160
